Data origin: patent US20230257383A1

The entries below come with measured Kp at 4 h values attached.
Assay: Blood-brain barrier permeability test, oral, SD rats
Assay type: in vivo
Details: rat, cerebrospinal fluid/plasma, oral 10 mg/kg single dose, time point 4 h, read-out: Cerebrospinal fluid/plasma
quantityName: Kp at 4 h

Cc1cc(Nc2ncnc3ccc(NC4=NC(C)(C)CO4)cc23)ccc1Oc1ccn2ncnc2c1 [Tucatinib, reference compound]; 0.008
Nc1nccn2c(C34CCC(CO)(CC3)OC4)nc(-c3ccc(C(F)(F)c4ccccc4F)cc3)c12; 0.044
Nc1nccn2c(C34CCC(CO)(CC3)OC4)nc(-c3ccc(C(F)(F)c4ccccc4Cl)cc3)c12; 0.21
Nc1nccn2c(C34CCC(CO)(CC3)OC4)nc(-c3ccc(C(F)(F)c4ccccc4)cc3)c12; 0.024
Nc1nccn2c(C34CCC(CO)(CC3)OC4)nc(-c3ccc(C(F)(F)c4cccc(F)c4Cl)cc3)c12; 0.092
Nc1nccn2c(C34CCC(CO)(CC3)OC4)nc(-c3ccc(C(F)(F)c4cccc(Cl)c4F)cc3)c12; 0.25
Nc1nccn2c(C3CCC(CO)OC3)nc(-c3ccc(C(F)(F)c4ccccc4)cc3)c12 (single isomer, unassigned) [Example 111-P1]; 0.031

====

Assay: Blood-brain barrier permeability test, oral, SD rats
Type: in vivo
Settings: rat, brain/plasma, oral 10 mg/kg single dose, time point 1 h, read-out: Brain tissue/plasma
Kp at 1 h strictly less than 0.8 = Condition met. Otherwise Condition not met.

Nc1nccn2c(C3CCC(CO)OC3)nc(-c3ccc(C(F)(F)c4ccccc4)cc3)c12 (single isomer, unassigned) [Example 111-P1]; Condition met
Cc1cc(Nc2ncnc3ccc(NC4=NC(C)(C)CO4)cc23)ccc1Oc1ccn2ncnc2c1 [Tucatinib, reference compound]; Condition met
Nc1nccn2c(C34CCC(CO)(CC3)OC4)nc(-c3ccc(C(F)(F)c4ccccc4F)cc3)c12 [Example 145]; Condition met
Nc1nccn2c(C34CCC(CO)(CC3)OC4)nc(-c3ccc(C(F)(F)c4cccc(Cl)c4F)cc3)c12 [Example 152]; Condition met
Nc1nccn2c(C34CCC(CO)(CC3)OC4)nc(-c3ccc(C(F)(F)c4ccccc4)cc3)c12 [Example 125]; Condition not met
CC#CC(=O)N1CC[C@@H](n2c(=O)n(-c3ccc(Oc4ccccc4)cc3)c3c(N)ncnc32)C1 [Tirabrutinib, reference compound]; Condition met
Nc1nccn2c(C34CCC(CO)(CC3)OC4)nc(-c3ccc(C(F)(F)c4ccccc4Cl)cc3)c12 [Example 155]; Condition not met

====

Parameter microsomal CLint: see the listing below.
Assay: Liver microsome metabolic stability test (rat)
Format: in vitro ADME
Details: liver microsomes, read-out: CLint (μL/min/mg) Rat
Description: 1: To the sample wells of T0, T5, T10, T20, T30, T60 and NCF60, 10 μL of the test or reference working solution and 80 μL of microsome working solution (hepatic microsome with a protein concentration of 0.5 mg/mL) were added, and to Blank60 well, only the microsome working solution was added. […] 6: Data analysis: T1/2 and CLint(mic) (μL/min/mg) values were calculated according to the first-order elimination kinetics. […]
quantityName: microsomal CLint (µL/min/mg)

Nc1nccn2c(C34CCC(CO)(CC3)OC4)nc(-c3ccc(C(F)(F)c4ccccc4Cl)cc3)c12; 62.2
Nc1nccn2c(C3CCC(CO)OC3)nc(-c3ccc(Oc4cccc(Cl)c4F)cc3)c12 (stereo not shown); 114
Nc1nccn2c(C34CCC(CO)(CC3)OC4)nc(-c3ccc(C(F)(F)c4ccccc4F)cc3)c12; 22.8
Nc1nccn2c(C3CCC(CO)OC3)nc(-c3ccc(Oc4ccccc4)cc3)c12 (stereo not shown); 63.9
Nc1nccn2c(C34CCC(CO)(CC3)OC4)nc(-c3ccc(C(=O)Nc4cc(C(F)(F)F)ccn4)cc3)c12; 13.7
Nc1nccn2c(C3CCC(CO)OC3)nc(-c3ccc(Oc4c(F)cccc4F)cc3)c12 (stereo not shown); 81.6
Nc1nccn2c(C3CCC(CO)OC3)nc(-c3ccc(C(=O)c4ccccc4)cc3)c12 (stereo not shown); 46.1
Nc1nccn2c(C3CCC(CO)OC3)nc(-c3ccc(Oc4cccc(F)c4F)cc3)c12 (stereo not shown); 66.5
Nc1nccn2c(C3CCC(CO)OC3)nc(-c3ccc(C(F)(F)c4ccccc4)cc3)c12 (stereo not shown); 26.1
Cc1ccnc(NC(=O)c2ccc(-c3nc(C4CCC(CO)OC4)n4ccnc(N)c34)cc2)c1 (stereo not shown); 30.3
Nc1nccn2c(C3CCC(CO)OC3)nc(-c3ccc(Cc4ccccc4)cc3)c12 (stereo not shown); 29.5
Nc1nccn2c(C34CCC(CO)(CC3)OC4)nc(-c3ccc(C(F)(F)c4ccccc4)cc3)c12; 21.7
COc1cccc(Oc2ccc(-c3nc(C4CCC(CO)OC4)n4c(Cl)cnc(N)c34)cc2)c1F (stereo not shown); 118

====

Below is a list of entries, each paired with its recorded IC50 value.
System: TMD8 cell proliferation
Test: In vitro cell proliferation inhibitory activity test (CTG), TMD8
Type: cell-based
Conditions: Homo sapiens, TMD8, 72 h, TMD8 cells
quantityName: IC50 (nM)

Nc1nccn2c(C34CCC(CO)(CC3)OC4)nc(-c3ccc(C(=O)Nc4cc(C(F)(F)F)ccn4)cc3)c12 [Example 118]; 23.8
Nc1nccn2c(C3CCC(CO)OC3)nc(-c3ccc(C(=O)Nc4cc(C(F)(F)F)ccn4)cc3)c12 (single isomer, unassigned) [Example 109-P1]; 12.2
COc1cccc(Oc2ccc(-c3nc(C4CCC(CO)OC4)n4ccnc(N)c34)cc2)c1C#N (single isomer, unassigned) [Example 89-P1]; 4.3

====

Assay: Blood-brain barrier permeability test, oral, SD rats
Type: in vivo
Details: rat, cerebrospinal fluid, oral 10 mg/kg single dose, time point 2 h, read-out: Drug concentration in cerebrospinal fluid
Protocol: Test Example 6: Blood-Brain Barrier Permeability Test Each test compound was administered orally at a single dose of 10 mg/kg to SD rats for pharmacokinetic study. Each group included 9 rats. […] 100 μL of the supernatant was taken and analyzed by LC-MS/MS. […] 50 μL of the supernatant was taken and analyzed by LC-MS/MS.
quantityName: concentration at 2 h (ng/mL)

Nc1nccn2c(C34CCC(CO)(CC3)OC4)nc(-c3ccc(C(F)(F)c4ccccc4)cc3)c12 [Example 125]; 30.4
Nc1nccn2c(C3CCC(CO)OC3)nc(-c3ccc(C(F)(F)c4ccccc4)cc3)c12 (single isomer, unassigned) [Example 111-P1]; 52.3
Nc1nccn2c(C34CCC(CO)(CC3)OC4)nc(-c3ccc(C(F)(F)c4ccccc4Cl)cc3)c12 [Example 155]; 374
Cc1cc(Nc2ncnc3ccc(NC4=NC(C)(C)CO4)cc23)ccc1Oc1ccn2ncnc2c1 [Tucatinib, reference compound]; 10.4
Nc1nccn2c(C34CCC(CO)(CC3)OC4)nc(-c3ccc(C(F)(F)c4cccc(Cl)c4F)cc3)c12 [Example 152]; 227

====

Tested on: BT474 cell proliferation
Experiment: In vitro cell proliferation inhibitory activity test (CTG), BT474
Assay type: cell-based
Settings: Homo sapiens, BT-474, BT474 cell proliferation
We begin with a simple list: items and their reported IC50.
quantityName: IC50

Nc1nccn2c(C34CCC(CO)(CC3)OC4)nc(-c3ccc(C(F)(F)c4cccc(F)c4Cl)cc3)c12; 86.9 nM
Nc1nccn2c(C34CCC(CO)(CC3)OC4)nc(-c3ccc(C(F)(F)c4cccc(Cl)c4F)cc3)c12; 65.5 nM
Cc1cccc(C(F)(F)c2ccc(-c3nc(C45CCC(CO)(CC4)OC5)n4ccnc(N)c34)cc2)c1F; 209 nM
Nc1nccn2c(C34CCC(CO)(CC3)OC4)nc(-c3ccc(C(F)(c4ccccc4)C(F)(F)F)cc3)c12 (stereo not shown); 4950 nM
Cc1cc(Nc2ncnc3ccc(NC4=NC(C)(C)CO4)cc23)ccc1Oc1ccn2ncnc2c1 [Tucatinib, reference compound]; 30.2 nM
Cc1c(F)cccc1C(F)(F)c1ccc(-c2nc(C34CCC(CO)(CC3)OC4)n3ccnc(N)c23)cc1; 377 nM
Nc1nccn2c(C3CCC(CO)OC3)nc(-c3ccc(C(F)(F)c4ccccc4)cc3)c12 (single isomer, unassigned) [Example 111-P1]; 1550 nM
Nc1nccn2c(C34CCC(CO)(CC3)OC4)nc(-c3ccc(C(F)(F)c4cccc(C5CC5)c4)cc3)c12; 467 nM
Nc1nccn2c(C34CCC(CO)(CC3)OC4)nc(-c3ccc(C(F)(F)c4ccccc4F)cc3)c12; 40.9 nM
Nc1nccn2c(C34CCC(CO)(CC3)OC4)nc(-c3ccc(C(F)(F)c4c(F)c(F)cc(F)c4F)cc3)c12; 191 nM
Nc1nccn2c(C34CCC(CO)(CC3)OC4)nc(-c3ccc(C(c4ccccc4)(C(F)(F)F)C(F)(F)F)cc3)c12; > 1000 nM
Nc1nccn2c(C34CCC(CO)(CC3)OC4)nc(-c3ccc(C(F)(F)c4ccccc4)cc3)c12; 340 nM
CS(=O)(=O)CCNCc1ccc(-c2ccc3ncnc(Nc4ccc(OCc5cccc(F)c5)c(Cl)c4)c3c2)o1; 55.2 nM
Nc1nccn2c(C34CCC(CO)(CC3)OC4)nc(-c3ccc(C(F)(F)c4ccccc4Cl)cc3)c12; 46.4 nM
Nc1nccn2c(C34CCC(CO)(CC3)OC4)nc(-c3ccc(C(O)(c4ccccc4)C(F)(F)F)cc3)c12 (stereo not shown); 2270 nM
Nc1nccn2c(C34CCC(CO)(CC3)OC4)nc(-c3ccc(C(F)(F)c4ccccc4)cc3F)c12; 173 nM
Nc1nccn2c(C34CCC(CO)(CC3)OC4)nc(-c3ccc(C(F)(F)c4ccccc4F)c(F)c3)c12; 269 nM
COc1cccc(C(F)(F)c2ccc(-c3nc(C45CCC(CO)(CC4)OC5)n4ccnc(N)c34)cc2)c1F; 208 nM
Nc1nccn2c(C34CCC(CO)(CC3)OC4)nc(-c3ccc(C(F)(F)c4cccc(F)c4F)cc3)c12; 89.9 nM
Nc1nccn2c(C34CCC(CO)(CC3)OC4)nc(-c3ccc(C(F)(F)c4c(F)cccc4F)cc3)c12; 121 nM
Nc1nccn2c(C34CCC(CO)(CC3)OC4)nc(-c3ccc(C(F)(F)c4ccc(F)c(Cl)c4)cc3)c12; 504 nM
Nc1nccn2c(C34CCC(CO)(CC3)OC4)nc(-c3ccc(C(F)(F)c4cccc(F)c4)cc3)c12; 153 nM
